assay: Half life in healthy human plasma at 800 mg, po administered as single dose measured after 120 hrs; type: ADME, organism-based

compound	half-life / h
CC[C@H]1OC(=O)[C@H](C)C(=O)[C@H](C)[C@@H](O[C@@H]2O[C@H](C)C[C@H](N(C)C)[C@H]2O)[C@@]2(C)C[C@@H](C)/C(=N\C(C)=O)[C@H](C)[C@@H](OC/C(=N\OCc3ccc(-n4cccn4)nc3)CO2)[C@]1(C)O [MODITHROMYCIN]	17.6

---

assay: Tmax in healthy human plasma at 200 mg, po administered as single dose measured after 120 hrs; type: ADME, organism-based
endpoint: Tmax (h)

structure_notation	measured_value
CC[C@H]1OC(=O)[C@H](C)C(=O)[C@H](C)[C@@H](O[C@@H]2O[C@H](C)C[C@H](N(C)C)[C@H]2O)[C@@]2(C)C[C@@H](C)/C(=N\C(C)=O)[C@H](C)[C@@H](OC/C(=N\OCc3ccc(-n4cccn4)nc3)CO2)[C@]1(C)O	2.5

---

assay: AUC (0 to infinity) in healthy human at 500 mg, po administered as single dose; assay type: ADME, organism-based; set-up: dose 500 mg, route oral, time infinity; conditions: plasma
endpoint: AUC(0-inf) (ng·h/mL)

compound	unit_label	measured_value
CC[C@H]1OC(=O)[C@H](C)[C@@H](O[C@H]2C[C@@](C)(OC)[C@@H](O)[C@H](C)O2)[C@H](C)[C@@H](O[C@@H]2O[C@H](C)C[C@H](N(C)C)[C@H]2O)[C@](C)(O)C[C@@H](C)C(=O)[C@H](C)[C@@H](O)[C@]1(C)O [ERYTHROMYCIN]	ng·h/mL	7700
CC[C@H]1OC(=O)[C@H](C)[C@@H](O[C@H]2C[C@@](C)(OC)[C@@H](O)[C@H](C)O2)[C@H](C)[C@@H](O[C@@H]2O[C@H](C)C[C@H](N(C)C)[C@H]2O)[C@](C)(O)C[C@@H](C)CN(C)[C@H](C)[C@@H](O)[C@]1(C)O [AZITHROMYCIN]	ng·h/mL	3390

---

assay: Cmax in healthy human plasma at 1200 mg, po administered as single dose measured after 120 hrs; type: ADME, organism-based; design: dose 1200 mg, route oral

structure_notation	Cmax
CC[C@H]1OC(=O)[C@H](C)C(=O)[C@H](C)[C@@H](O[C@@H]2O[C@H](C)C[C@H](N(C)C)[C@H]2O)[C@@]2(C)C[C@@H](C)/C(=N\C(C)=O)[C@H](C)[C@@H](OC/C(=N\OCc3ccc(-n4cccn4)nc3)CO2)[C@]1(C)O	1080 ng/mL

---

assay: Half life in healthy human plasma at 100 mg, po administered as single dose measured after 120 hrs; format: ADME, organism-based

structure_notation	half-life
CC[C@H]1OC(=O)[C@H](C)C(=O)[C@H](C)[C@@H](O[C@@H]2O[C@H](C)C[C@H](N(C)C)[C@H]2O)[C@@]2(C)C[C@@H](C)/C(=N\C(C)=O)[C@H](C)[C@@H](OC/C(=N\OCc3ccc(-n4cccn4)nc3)CO2)[C@]1(C)O	15.6 h

---

assay: Distribution half life in healthy human at 400 mg, po administered as single dose; format: ADME, organism-based; conditions: in vivo
endpoint: half-life

structure_notation	endpoint	measured_value
CC[C@H]1OC(=O)[C@H](C)C(=O)[C@H](C)[C@@H](O[C@@H]2O[C@H](C)C[C@H](N(C)C)[C@H]2O)[C@](C)(OC)C[C@@H](C)C(=O)[C@H](C)[C@H]2N(CCCCn3cnc(-c4cccnc4)c3)C(=O)O[C@]12C	half-life	2.13 h

---

test: Renal clearance in healthy human at 1200 mg, po administered as single dose measured after 48 hrs; type: ADME, organism-based, Kidney; conditions: in vivo, read-out: CL_renal (converted)
endpoint: CL renal at 48 h (mL/min)

structure_notation	measured_value
CC[C@H]1OC(=O)[C@H](C)C(=O)[C@H](C)[C@@H](O[C@@H]2O[C@H](C)C[C@H](N(C)C)[C@H]2O)[C@@]2(C)C[C@@H](C)/C(=N\C(C)=O)[C@H](C)[C@@H](OC/C(=N\OCc3ccc(-n4cccn4)nc3)CO2)[C@]1(C)O	41.3

---

test: Cmax in healthy human plasma at 200 mg, po administered as single dose measured after 120 hrs; assay type: ADME, organism-based; set-up: dose 200 mg, route oral

structure_notation	Cmax [ng/mL]
CC[C@H]1OC(=O)[C@H](C)C(=O)[C@H](C)[C@@H](O[C@@H]2O[C@H](C)C[C@H](N(C)C)[C@H]2O)[C@@]2(C)C[C@@H](C)/C(=N\C(C)=O)[C@H](C)[C@@H](OC/C(=N\OCc3ccc(-n4cccn4)nc3)CO2)[C@]1(C)O	360

---

assay: Elimination rate constant in healthy human plasma at 100 mg, po administered as single dose measured after 120 hrs; format: ADME, organism-based
endpoint: k el at 120 h (s⁻¹)

structure_notation	measured_value
CC[C@H]1OC(=O)[C@H](C)C(=O)[C@H](C)[C@@H](O[C@@H]2O[C@H](C)C[C@H](N(C)C)[C@H]2O)[C@@]2(C)C[C@@H](C)/C(=N\C(C)=O)[C@H](C)[C@@H](OC/C(=N\OCc3ccc(-n4cccn4)nc3)CO2)[C@]1(C)O	1.23e-05

---

assay: Renal clearance in healthy human at 800 mg, po administered as single dose measured after 48 hrs; assay type: ADME, organism-based, Kidney; settings: in vivo, read-out: CL_renal (converted)
endpoint: CL renal at 48 h (mL/min)

structure_notation	measured_value
CC[C@H]1OC(=O)[C@H](C)C(=O)[C@H](C)[C@@H](O[C@@H]2O[C@H](C)C[C@H](N(C)C)[C@H]2O)[C@@]2(C)C[C@@H](C)/C(=N\C(C)=O)[C@H](C)[C@@H](OC/C(=N\OCc3ccc(-n4cccn4)nc3)CO2)[C@]1(C)O	57.5

---

assay: Apparent volume of distribution in healthy human plasma at 200 mg, po administered as single dose measured after 120 hrs; type: ADME, organism-based

structure_notation	Vd/F (L)
CC[C@H]1OC(=O)[C@H](C)C(=O)[C@H](C)[C@@H](O[C@@H]2O[C@H](C)C[C@H](N(C)C)[C@H]2O)[C@@]2(C)C[C@@H](C)/C(=N\C(C)=O)[C@H](C)[C@@H](OC/C(=N\OCc3ccc(-n4cccn4)nc3)CO2)[C@]1(C)O	589

---

experiment: AUC (0 to last) in healthy human plasma at 100 mg, po administered as single dose measured after 120 hrs; assay type: ADME, organism-based; parameters: dose 100 mg, route oral, time 0 - last
endpoint: AUC(0-t) at 120 h (µg·h/mL)

compound	measured_value
CC[C@H]1OC(=O)[C@H](C)C(=O)[C@H](C)[C@@H](O[C@@H]2O[C@H](C)C[C@H](N(C)C)[C@H]2O)[C@@]2(C)C[C@@H](C)/C(=N\C(C)=O)[C@H](C)[C@@H](OC/C(=N\OCc3ccc(-n4cccn4)nc3)CO2)[C@]1(C)O [MODITHROMYCIN]	3.4

---

assay: Renal clearance in healthy human at 400 mg, po administered as single dose measured after 48 hrs; type: ADME, organism-based, Kidney; details: in vivo, read-out: CL_renal (converted)

molecule	unit_label	CL renal at 48 h
CC[C@H]1OC(=O)[C@H](C)C(=O)[C@H](C)[C@@H](O[C@@H]2O[C@H](C)C[C@H](N(C)C)[C@H]2O)[C@@]2(C)C[C@@H](C)/C(=N\C(C)=O)[C@H](C)[C@@H](OC/C(=N\OCc3ccc(-n4cccn4)nc3)CO2)[C@]1(C)O [MODITHROMYCIN]	mL/min	58

---

assay: Renal clearance in healthy human at 200 mg, po administered as single dose measured after 48 hrs; type: ADME, organism-based, Kidney; conditions: in vivo, read-out: CL_renal (converted)

structure_notation	unit_label	CL renal at 48 h
CC[C@H]1OC(=O)[C@H](C)C(=O)[C@H](C)[C@@H](O[C@@H]2O[C@H](C)C[C@H](N(C)C)[C@H]2O)[C@@]2(C)C[C@@H](C)/C(=N\C(C)=O)[C@H](C)[C@@H](OC/C(=N\OCc3ccc(-n4cccn4)nc3)CO2)[C@]1(C)O	mL/min	60.3

---

assay: Renal clearance in healthy human assessed as cumulative fraction excreted unchanged in urine at 800 mg, po administered as single dose measured after 48 hrs; type: ADME, organism-based; details: read-out: Fraction Recovered in urine

structure_notation	dose excreted at 48 h, %
CC[C@H]1OC(=O)[C@H](C)C(=O)[C@H](C)[C@@H](O[C@@H]2O[C@H](C)C[C@H](N(C)C)[C@H]2O)[C@@]2(C)C[C@@H](C)/C(=N\C(C)=O)[C@H](C)[C@@H](OC/C(=N\OCc3ccc(-n4cccn4)nc3)CO2)[C@]1(C)O	11.4
